Values were extracted from paper PMC8443706.

Target: T1, IIB-Fc:ALK7-Fc heterodimer (human ActRIIB ECD-Fc paired with human ALK7 ECD-Fc) (human, UniProt Q13705-1 19-134; Q8NER5-1 25-113)
T1 construct: activin receptor type IIB (ActRIIB) extracellular domain, human, aa 19-134 of NP_001097.2; activin receptor-like kinase 7 (ALK7) extracellular domain, human, aa 25-113 of NP_660302.2; copies: 1 + 1
T1 sequence (Q13705 19-134, chain 1 of 2): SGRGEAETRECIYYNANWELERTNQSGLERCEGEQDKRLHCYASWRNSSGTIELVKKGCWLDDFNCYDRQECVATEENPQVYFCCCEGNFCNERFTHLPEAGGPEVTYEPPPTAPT
T1 sequence (Q8NER5 25-113, chain 2 of 2): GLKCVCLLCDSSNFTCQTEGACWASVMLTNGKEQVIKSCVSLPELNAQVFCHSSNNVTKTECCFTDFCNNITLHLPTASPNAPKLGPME
Test: SPR; Biacore 8K, 37 °C; Fc-fusion receptor dimers captured by anti-human Fc antibody on a CM5 chip (100-150 RU); ligands injected in two-fold dilution series (300 s association, 600 s dissociation); HBS-EP+ supplemented with 350 mM NaCl and 0.5 mg/mL BSA; 1:1 Langmuir model with a term for mass transport
Conditions: both partners purified
observedProperty: koff (s⁻¹)

Example cases with answers are listed next.
| binder | testValue |
| --- | --- |
| activin B (ligand, human, UniProt P09529 293-407, looked up, source: generated in house) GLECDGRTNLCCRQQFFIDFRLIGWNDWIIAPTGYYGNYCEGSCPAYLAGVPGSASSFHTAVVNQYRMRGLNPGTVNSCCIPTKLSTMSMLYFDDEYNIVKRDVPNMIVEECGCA | 0.000114 |
| BMP6 (ligand, human, UniProt P22004 375-513, looked up, source: bought: R&D Systems) SASSRRRQQSRNRSTQSQDVARVSSASDYNSSELKTACRKHELYVSFQDLGWQDWIIAPKGYAANYCDGECSFPLNAHMNATNHAIVQTLVHLMNPEYVPKPCCAPTKLNAISVLYFDDNSNVILKKYRNMVVRACGCH | 0.00424 |

I. BMP10 (ligand, human, UniProt O95393 317-424, looked up, source: bought: R&D Systems) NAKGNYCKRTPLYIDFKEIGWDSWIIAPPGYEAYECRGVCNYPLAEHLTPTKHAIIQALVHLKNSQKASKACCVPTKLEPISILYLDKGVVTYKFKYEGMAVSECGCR
II. GDF11 (ligand, human, UniProt O95390 299-407, looked up, source: generated in house) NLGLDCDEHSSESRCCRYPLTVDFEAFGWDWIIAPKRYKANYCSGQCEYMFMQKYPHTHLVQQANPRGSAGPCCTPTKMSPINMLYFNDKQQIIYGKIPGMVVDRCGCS
Out of I and II , name the one with the higher koff. Use the label to indicate which entry you chose.
I
(I: 0.00314 s⁻¹, II: 0.000642 s⁻¹)
